Source of measurements: a melting point compilation (Tetko et al.; mined from patent text by program, amines drawn as free bases though some values may be those of a salt)

# reported melting point; entries follow
value kind: melting point

> print(dat)
                                   molecule         result
1  CC(=O)OC1CSC(Oc2cccc3c2nc(C)n3C)C(OC(C)=O)C1OC(C)=O (stereo unspecified)         192 °C
2                 CC(C)C(=O)CNC(=O)c1ccccc1    78 to 80 °C
3  COc1cc2ncc(C#N)c(Nc3ccc(C(F)(F)F)cc3)c2cc1OC  116 to 118 °C
4  CCOC(=O)C1=C(C)NC(C)=C2C(=O)Nc3ccccc3C21 (stereo unspecified)  236 to 238 °C
5  CCc1cc2c(ccc(=O)n2Cc2ccc(C(=O)O)cc2)c(CC)n1  143 to 146 °C
6  Fc1ccc(Oc2nccc(-c3c(-c4ccc(F)cc4)ncn3C3CCNCC3)n2)cc1  186 to 187 °C

* * *

# reported melting point; entries follow
value kind: melting point

> print(dat)
                                    compound         result
 1  COc1ccccc1NC(=O)Nc1nc(N2CCOCC2)nc(N(CCC(=O)O)Cc2cccc(C)c2)n1  101 to 102 °C
 2  CS(=O)c1ncccc1C(=O)c1cnoc1C1CC1 (configuration not stated)  148 to 152 °C
 3            Nc1cc(OCc2ccccc2)ccc1C=C(Br)Br    93 to 94 °C
 4  CC(=O)NC(CCc1ccc(C=O)cc1)(COC(C)=O)COC(C)=O   98 to 100 °C
 5  CC(C)(C)NCC(O)c1ccc(N)c(C(F)(F)F)c1 (configuration not stated)  145 to 147 °C
 6                         S=C1CNc2ccccc2CN1  150 to 153 °C
 7      CP(C)(=O)CN1CCN(c2n[nH]c3ccccc23)CC1  223 to 225 °C
 8  CN1C(=O)CC(c2ccccc2)C1C(O)c1ccc(C(=O)Nc2ccccc2)s1 (configuration not stated)  223 to 227 °C
 9         CCOC(=O)CC(=O)c1cc(F)c(F)c(OC)c1F    42 to 44 °C
10  COC(=O)c1cnc(Nc2cc(N3CCN(CCO)CC3)nc(C)n2)s1         242 °C
11  CC1(CC(=O)O)CCCC1=O (configuration not stated)    70 to 72 °C
12  CCCCC(CC(=O)O)C(=O)O (configuration not stated)    82 to 83 °C

* * *

# reported melting point; entries follow
value kind: melting point

> print(dat)
                                   compound     value.kind         result
1  Cc1c(C2CCC(c3cccs3)(N(C)C)CC2)[nH]c2ccccc12 (stereo unspecified)  melting point  191 to 197 °C
2  CCOC(=O)NCC(=O)c1ccc(OCC(=O)NCCN2CCOCC2)cc1  melting point  133 to 135 °C
3           CCc1nc(CC)c(CO)c(-c2ccccc2)c1CC  melting point         100 °C
4        Nc1nc(N)c(-c2ccc(Cl)cc2Cl)c(CBr)n1  melting point       > 270 °C
5  CCCCCCOc1c(C=Cc2ccc(Br)cc2)ccc2c(OCCCCCC)c(C=Cc3ccc(Br)cc3)ccc12  melting point  170 to 172 °C
6  CC(=O)Cn1cnc2c1c(=O)n(CC1CC1)c(=O)n2Cc1ccccc1  melting point         138 °C
